Every entry's value here was drawn from ChEMBL document CHEMBL1201862.

# Tested on: SNB-75
# Experiment summary: NCI tumour cell line growth inhibition, 48 h
Counter-ions that a name gives are not always drawn. The source made the active and inactive calls. No stated cut-off is given here; in the data, active = GI50 up to about 1.1 µM and inactive = higher.
// reported GI50 for each item listed

>  <Compound>
CC(=O)N(C)c1ccc(Nc2cc(C)nc3ccc4nc[nH]c4c23)cc1 [ACODAZOLE HYDROCHLORIDE]

>  <GI50>
9.33 µM (inactive)

$$$$
>  <Compound>
O=[N+]([O-])c1cc(/C=N\NS(=O)(=O)c2ccc(Cl)cc2)c(O)c([N+](=O)[O-])c1

>  <GI50>
24.9 µM (inactive)

$$$$

Proceeding to the next compound to report its GI50.
Query `COC(=O)c1c(C(=O)OC)c2ccccn2c1-c1cc(C)cc2c1C(=O)C=CC2=O` yields GI50 of 16.4 µM (inactive)

###

# Test system: UACC-257
# Experiment summary: NCI tumour cell line growth inhibition, 48 h
Active and inactive are the calls of the source. No stated cut-off is given here; in the data, active = GI50 up to about 1.1 µM and inactive = higher.
One label from this list, please: active, inactive

Illustrative cases are given below, each with its answer.
>  <Compound>
Cc1ccc(C(=O)N2CCCCC2)cc1/N=N/N(C)C

>  <Label value>
inactive

$$$$
>  <Compound>
O=C1CCC(Cl)=CC2CCCN12 (stereo not given)

>  <Label value>
inactive

$$$$
>  <Compound>
CCC1(O)CC(c2ccccc2)N(C)C(c2ccccc2)C1 (stereo not given)

>  <Label value>
inactive

$$$$
>  <Compound>
C=C1C(=O)O[C@H]2C[C@@H]1[C@@H](O)[C@H](O)[C@@H](C)CCCC(C)=CCC[C@@]2(C)O

>  <Label value>
inactive

$$$$
>  <Compound>
NC(=S)SC1=NC(=O)C2(NN1)c1ccccc1-c1ccccc12

>  <Label value>
inactive

$$$$

// query # lookup: test call for `CCCCCCCCCCCCCCCCCCCCCCC(=O)N[C@H]1CCc2cc(OC)c(OC)c(OC)c2-c2ccc(SC)c(=O)cc21`
// result inactive

// query # lookup: test call for CCOC(OCC)[C@@H]1C[C@@H]2N(O[C@H](OC3CCCC3(c3ccccc3)c3ccccc3)[C@H](OC(C)=O)[C@@]2(CC)Cc2ccc(OC)c(OC)c2)O1 (stereo not given in full)
// result inactive

// query # lookup: test call for `Cc1n(CC(C)C)c2c([n+]1C)C(=O)c1ccccc1C2=O`
// result active

// query # lookup: test call for Cc1ccccc1C(=O)C#Cc1cn(C2CC(O)C(CO)O2)c(=O)[nH]c1=O (stereo not given)
// result inactive

// query # lookup: test call for `OC(Cc1ccc2ccccc2n1)(C(F)(F)F)C(F)(F)F`
// result inactive

###

# System: SF-268
# Experiment summary: NCI tumour cell line growth inhibition, 48 h
Calls of active or inactive are those of the source. Rule as the data show it: active = GI50 up to about 1.1 µM and inactive = higher.
// reported GI50 for each item listed

Past entries and their recorded results:
>  <Compound>
[N-]=[N+]=CC(=O)OC1Cc2ccccc2C1

>  <GI50>
> 100 µM (inactive)

$$$$
>  <Compound>
CC1(c2cccs2)CC(c2cccs2)=C(C#N)C(=C(C#N)C#N)N1 (stereo unspecified)

>  <GI50>
18.2 µM (inactive)

$$$$
>  <Compound>
CCN1C=C/C(=C\C=C\c2cc[n+](CC)c3ccccc23)c2ccccc21

>  <GI50>
4.99 µM (inactive)

$$$$
>  <Compound>
CC(C)(C)C(=O)Nc1c(C=O)ccc2[nH]cnc12

>  <GI50>
> 100 µM (inactive)

$$$$
>  <Compound>
Nc1n[n+]([O-])c2ccc(Cl)cc2[n+]1[O-]

>  <GI50>
52.1 µM (inactive)

$$$$

Proceeding to the next compound to report its GI50.
Item: `N#Cc1c(N)nc2c(/N=N\c3ccccc3)c(N)nn2c1Nc1ccccc1` | System: SF-268 | GI50: 26.7 µM (inactive)
